Experiment: ATG_VDRE_CIS: Attagene CIS-FACTORIAL HepG2 Assay for human Vitamin D Receptor Element (VDRE) (AID 2282968)
Details: HepG2 VDRE cis-reporter transcription, actives raise or lower the signal
Active and inactive are the calls of the source. How the source made its calls: active means hit-call score of the fitted dose curve at least 0.9, where 1 is the maximum; inactive means score below 0.9.
I would appreciate it if you answered using one of these outcomes: active, inactive

Input line: Hello, I am checking results. What call was entered for "CCS(=O)(=O)c1cccnc1S(=O)(=O)NC(=O)Nc1nc(OC)cc(OC)n1" ?
Output line: inactive

Input line: // same read-out, input: "O=C(Nc1ccccc1)Nc1cnns1"
Output line: active

Input line: // same read-out, input: "CCN(CC)C(=O)SCc1ccc(Cl)cc1"
Output line: active

Input line: // same read-out, input: CC(C)(C)C(O)/C(=C\c1ccc(Cl)cc1Cl)n1cncn1 (stereo not drawn)
Output line: inactive

Input line: // same read-out, input: O=C(NC(=O)c1c(F)cccc1F)Nc1ccc(OC(F)(F)C(F)OC(F)(F)F)c(Cl)c1 (stereo not drawn)
Output line: inactive

Input line: // same read-out, input: "CCC(C)(C)C(=O)OC1=C(c2ccc(Cl)cc2Cl)C(=O)OC12CCCCC2"
Output line: inactive

Input line: // same read-out, input: "Clc1ccccc1-c1nnc(-c2ccccc2Cl)nn1"
Output line: inactive

Input line: // same read-out, input: "COP(=S)(OC)Oc1ccc(SC)c(C)c1"
Output line: active

Input line: // same read-out, input: "COP(=S)(OC)Oc1ccc([N+](=O)[O-])cc1"
Output line: inactive

Input line: // same read-out, input: "O=[N+]([O-])/N=C1\NCCN1Cc1ccc(Cl)nc1"
Output line: inactive

Input line: // same read-out, input: "CCOCN(C(=O)CCl)c1c(C)cccc1CC"
Output line: inactive

Input line: // same read-out, input: "CNC(=O)Oc1ccccc1OC(C)C"
Output line: inactive

Input line: // same read-out, input: "OCCOc1ccccc1"
Output line: inactive

###

Test: Tanguay_ZF_120hpf_TRUN_legacy: (Legacy) Oregon State University Tanguay Lab 120 Hour Post-fertilization zebrafish Assay for Truncated Body (AID 2283655)
Results filed as inconclusive are left out. The source made the active and inactive calls. The calls were made as follows: active = hit-call score of the fitted dose curve at least 0.9, where 1 is the maximum; inconclusive = response in the unintended direction; inactive = score below 0.9.
I would appreciate it if you answered using one of these outcomes: active, inactive

Input line: Hello, I am checking results. What call was entered for "CN1CSC(=S)N(C)C1" ?
Output line: inactive

Input line: // same read-out, input: "CC(C)N(C(=O)COc1nnc(C(F)(F)F)s1)c1ccc(F)cc1"
Output line: inactive

Input line: // same read-out, input: "COP(=S)(OC)Oc1ccc([N+](=O)[O-])cc1"
Output line: inactive

Input line: // same read-out, input: ClC1C(Cl)C(Cl)C(Cl)C(Cl)C1Cl (configuration not stated)
Output line: inactive

Input line: // same read-out, input: "O=[N+]([O-])c1c(Cl)c(Cl)c(Cl)c(Cl)c1Cl"
Output line: inactive

Input line: // same read-out, input: "Cc1[nH]c(=O)n(C(C)(C)C)c(=O)c1Cl"
Output line: inactive

Input line: // same read-out, input: "Clc1ccccc1-c1nnc(-c2ccccc2Cl)nn1"
Output line: inactive

Input line: // same read-out, input: "CC(C)OC(=O)Nc1cccc(Cl)c1"
Output line: inactive

Input line: // same read-out, input: CC(C)(C)C(O)/C(=C\c1ccc(Cl)cc1Cl)n1cncn1 (configuration not stated)
Output line: inactive

Input line: // same read-out, input: "CCOCN(C(=O)CCl)c1c(C)cccc1CC"
Output line: active

Input line: // same read-out, input: "CCCN(CCOc1c(Cl)cc(Cl)cc1Cl)C(=O)n1ccnc1"
Output line: inactive

Input line: // same read-out, input: "CCCN(CCC)c1c([N+](=O)[O-])cc(C(F)(F)F)cc1[N+](=O)[O-]"
Output line: inactive

Input line: // same read-out, input: "O=[N+]([O-])/N=C1\NCCN1Cc1ccc(Cl)nc1"
Output line: inactive

Input line: // same read-out, input: O=S1OCC2C(CO1)C1(Cl)C(Cl)=C(Cl)C2(Cl)C1(Cl)Cl (configuration not stated)
Output line: inactive

Input line: // same read-out, input: "CCc1ccc(C(=O)NN(C(=O)c2cc(C)cc(C)c2)C(C)(C)C)cc1"
Output line: inactive

Input line: // same read-out, input: O=C(NC(=O)c1c(F)cccc1F)Nc1ccc(OC(F)(F)C(F)OC(F)(F)F)c(Cl)c1 (configuration not stated)
Output line: inactive

Input line: // same read-out, input: "O=C(O)C(F)(F)C(F)(F)C(F)(F)C(F)(F)C(F)(F)C(F)(F)C(F)(F)F"
Output line: inactive

Input line: // same read-out, input: "COc1nn(CSP(=S)(OC)OC)c(=O)s1"
Output line: inactive

Input line: // same read-out, input: "CNC(=O)Oc1ccccc1OC(C)C"
Output line: inactive

Input line: // same read-out, input: CC1(C)C(C=C(Cl)Cl)C1C(=O)OC(C#N)c1ccc(F)c(Oc2ccccc2)c1 (configuration not stated)
Output line: inactive

Input line: // same read-out, input: CCC(C)Nc1c([N+](=O)[O-])cc(C(C)(C)C)cc1[N+](=O)[O-] (configuration not stated)
Output line: inactive

Input line: // same read-out, input: "COP(=S)(OC)Oc1ccc(SC)c(C)c1"
Output line: inactive

Every entry's value here was drawn from PubChem BioAssay (EPA / NIEHS).
